Where these numbers come from: paper PMC8081235

assay_target: PLC-γ1 (D1165H) (Rattus norvegicus, UniProt P10686, D1165H)
Sequence (P10686 whole entry D1165H): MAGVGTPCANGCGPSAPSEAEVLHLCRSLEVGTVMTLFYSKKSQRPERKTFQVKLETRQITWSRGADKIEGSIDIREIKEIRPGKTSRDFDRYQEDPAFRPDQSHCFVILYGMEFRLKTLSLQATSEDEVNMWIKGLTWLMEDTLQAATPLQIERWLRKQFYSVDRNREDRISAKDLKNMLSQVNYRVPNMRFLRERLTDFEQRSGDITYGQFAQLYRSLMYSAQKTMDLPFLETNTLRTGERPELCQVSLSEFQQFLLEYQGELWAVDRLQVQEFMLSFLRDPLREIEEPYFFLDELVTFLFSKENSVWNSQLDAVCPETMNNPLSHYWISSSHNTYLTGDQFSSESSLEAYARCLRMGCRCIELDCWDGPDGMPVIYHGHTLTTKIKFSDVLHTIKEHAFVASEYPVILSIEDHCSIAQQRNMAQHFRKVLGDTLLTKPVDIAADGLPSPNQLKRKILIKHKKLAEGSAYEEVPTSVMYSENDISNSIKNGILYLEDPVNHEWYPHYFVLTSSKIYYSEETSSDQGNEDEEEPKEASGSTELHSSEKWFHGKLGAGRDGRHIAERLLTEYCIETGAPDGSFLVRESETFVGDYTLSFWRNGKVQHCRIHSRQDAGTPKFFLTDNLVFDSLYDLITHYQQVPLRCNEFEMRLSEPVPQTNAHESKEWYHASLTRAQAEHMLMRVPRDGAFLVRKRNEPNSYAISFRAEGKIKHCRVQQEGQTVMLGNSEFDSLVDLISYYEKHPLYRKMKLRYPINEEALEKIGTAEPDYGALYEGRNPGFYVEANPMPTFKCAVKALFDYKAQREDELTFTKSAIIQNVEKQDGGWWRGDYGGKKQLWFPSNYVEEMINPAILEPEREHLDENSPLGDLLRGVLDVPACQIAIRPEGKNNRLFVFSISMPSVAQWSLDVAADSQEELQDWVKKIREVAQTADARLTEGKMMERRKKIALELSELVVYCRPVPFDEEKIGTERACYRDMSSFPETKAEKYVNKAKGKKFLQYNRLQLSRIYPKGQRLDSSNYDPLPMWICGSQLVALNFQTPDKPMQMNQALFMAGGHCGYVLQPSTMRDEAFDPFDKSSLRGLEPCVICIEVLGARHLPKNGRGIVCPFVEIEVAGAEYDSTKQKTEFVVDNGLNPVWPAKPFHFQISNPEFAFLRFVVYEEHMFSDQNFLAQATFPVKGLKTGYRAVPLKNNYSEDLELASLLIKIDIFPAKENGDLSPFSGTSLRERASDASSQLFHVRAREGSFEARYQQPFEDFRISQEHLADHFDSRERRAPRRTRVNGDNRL
assay_comment: IC50 measurement with XY-69 in liposomes
Type: biochemical
measurement_kind: IC50 (nM)
Give the value, in units of nM, as a plain number.

Prompt: Look up IC50 with PLC-γ1 (D1165H) (Rattus norvegicus, UniProt P10686, D1165H) for this compound: Nc1ncnc2c1ncn2[C@@H]1O[C@H](COP(=O)(O)OP(=O)(O)OP(=O)(O)O)[C@@H](O)[C@H]1O [ATP, adenosine triphosphate]
Completion: 190

* * *

assay_target: PLC-γ1 (D1165H) (Rattus norvegicus, UniProt P10686, D1165H)
assay_comment: IC50 measurement with XY-69 in liposomes
Type: biochemical
run_conditions: XY-69 0.5 μM, PIP2 20 μM in liposomes
measurement_kind: IC50 (µM)
// units = µM; emit number, no label

[[record]]
compound = "Nc1ncnc2c1ncn2[C@@H]1O[C@H](COP(=O)(O)OP(=O)(O)O)[C@@H](O)[C@H]1O [ADP]"
measurement_kind = "IC50"
unit_tag = "µM"
readout_value = 4.3


Would you kindly look at the next entry?
Prompt: Could you share what IC50 was measured for Nc1nc2c(ncn2[C@@H]2O[C@H](COP(=O)(O)OP(=O)(O)OP(=O)(O)O)[C@@H](O)[C@H]2O)c(=O)[nH]1 [GTP] , tested on PLC-γ1 (D1165H) (Rattus norvegicus, UniProt P10686, D1165H)?
Completion: 12.7

* * *

assay_target: wild-type PLC-γ1 (Rattus norvegicus)
Sequence (P10686 2-1290): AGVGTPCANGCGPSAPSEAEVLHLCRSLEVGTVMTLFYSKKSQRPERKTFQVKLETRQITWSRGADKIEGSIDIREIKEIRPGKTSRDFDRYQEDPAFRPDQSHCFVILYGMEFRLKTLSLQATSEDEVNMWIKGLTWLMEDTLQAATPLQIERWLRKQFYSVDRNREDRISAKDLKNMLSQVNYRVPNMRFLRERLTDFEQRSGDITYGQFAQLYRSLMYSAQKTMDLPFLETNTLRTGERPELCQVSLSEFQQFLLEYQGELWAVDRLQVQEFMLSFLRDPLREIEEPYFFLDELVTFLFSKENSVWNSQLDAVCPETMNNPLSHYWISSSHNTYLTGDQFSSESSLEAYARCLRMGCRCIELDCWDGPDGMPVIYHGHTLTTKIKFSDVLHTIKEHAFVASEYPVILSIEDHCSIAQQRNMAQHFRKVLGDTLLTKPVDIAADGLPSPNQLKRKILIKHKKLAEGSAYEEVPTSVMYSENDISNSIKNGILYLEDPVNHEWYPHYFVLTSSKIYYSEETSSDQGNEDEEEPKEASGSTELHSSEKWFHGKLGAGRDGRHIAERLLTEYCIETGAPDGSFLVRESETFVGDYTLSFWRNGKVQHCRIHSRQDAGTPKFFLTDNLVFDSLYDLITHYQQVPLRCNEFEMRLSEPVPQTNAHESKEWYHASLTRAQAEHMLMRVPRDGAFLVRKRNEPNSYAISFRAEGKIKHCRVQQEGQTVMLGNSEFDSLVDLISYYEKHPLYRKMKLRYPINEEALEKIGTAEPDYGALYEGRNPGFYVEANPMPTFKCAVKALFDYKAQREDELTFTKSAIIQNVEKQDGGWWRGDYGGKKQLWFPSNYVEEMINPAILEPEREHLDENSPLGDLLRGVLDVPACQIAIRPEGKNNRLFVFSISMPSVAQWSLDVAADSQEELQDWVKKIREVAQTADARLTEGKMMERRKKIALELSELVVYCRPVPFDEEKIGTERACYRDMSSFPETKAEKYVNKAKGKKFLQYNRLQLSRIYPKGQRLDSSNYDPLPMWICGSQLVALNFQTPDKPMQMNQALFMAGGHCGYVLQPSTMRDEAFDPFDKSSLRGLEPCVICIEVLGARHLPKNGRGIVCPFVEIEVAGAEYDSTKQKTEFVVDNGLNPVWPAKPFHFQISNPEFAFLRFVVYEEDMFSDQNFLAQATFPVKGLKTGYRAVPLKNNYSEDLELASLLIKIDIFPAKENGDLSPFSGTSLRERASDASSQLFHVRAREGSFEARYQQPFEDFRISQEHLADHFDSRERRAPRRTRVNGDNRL
measurement_kind: Kd
Note: a bare number is incomplete; add the unit.

Prompt: # query: Kd of entry Nc1ncnc2c1ncn2[C@@H]1O[C@H](COP(=O)(O)OP(=O)(O)OP(=O)(O)O)[C@@H](O)[C@H]1O [ATP, adenosine triphosphate]
Completion: 2.6 µM
